TARGET OR TEST SYSTEM: human RXFP1 (Homo sapiens)
Sequence (Q9HBX9 1-757): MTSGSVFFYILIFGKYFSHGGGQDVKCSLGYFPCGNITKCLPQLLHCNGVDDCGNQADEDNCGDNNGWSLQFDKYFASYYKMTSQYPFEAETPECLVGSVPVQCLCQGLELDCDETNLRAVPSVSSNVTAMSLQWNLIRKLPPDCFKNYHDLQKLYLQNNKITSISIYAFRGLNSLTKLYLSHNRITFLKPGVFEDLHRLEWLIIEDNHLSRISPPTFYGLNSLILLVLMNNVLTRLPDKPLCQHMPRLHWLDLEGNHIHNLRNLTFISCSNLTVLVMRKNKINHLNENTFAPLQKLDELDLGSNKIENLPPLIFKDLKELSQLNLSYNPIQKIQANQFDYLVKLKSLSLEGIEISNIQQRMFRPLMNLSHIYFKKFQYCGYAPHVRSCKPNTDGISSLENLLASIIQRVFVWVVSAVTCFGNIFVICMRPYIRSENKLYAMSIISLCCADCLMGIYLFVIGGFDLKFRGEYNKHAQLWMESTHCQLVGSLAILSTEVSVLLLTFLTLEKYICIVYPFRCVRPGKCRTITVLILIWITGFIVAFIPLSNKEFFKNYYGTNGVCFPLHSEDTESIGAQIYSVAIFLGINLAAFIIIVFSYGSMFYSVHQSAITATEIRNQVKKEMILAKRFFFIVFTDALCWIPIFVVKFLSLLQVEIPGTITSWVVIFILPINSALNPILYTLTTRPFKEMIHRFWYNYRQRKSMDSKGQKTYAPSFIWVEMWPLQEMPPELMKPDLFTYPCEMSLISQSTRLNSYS
ASSAY COMMENT: RXFP1 Hu cAMP (Test A)
Assay type: cell-based
Parameters: expressed in transfected cells; host or cells: Jump-In T-REx CHO-K1 cells (ThermoFisher), induced with 10 ng/ml doxycycline for 24 h
ASSAY CONTEXT: RXFP1 Hu cAMP; read-out: Test A EC50
ATTRIBUTE MEASURED: EC50 (nM)

For orientation, consider the following solved cases.
Look up and report measured EC50 for this entry: "COc1cc(F)c(O[C@H]2CC[C@@](C)(C(=O)O)CC2)cc1C(=O)N[C@@H]1[C@H]2CC[C@H](C2)[C@@H]1C(=O)NC12CC(F)(C1)C2"
75

Retrieve EC50 measured for COc1cc(F)c(OC2CCC(O)(C(=O)O)CC2)cc1C(=O)NC1C2CCC(C2)C1C(=O)Nc1cccc(S(=O)(=O)C(F)(F)F)c1 (centres unmarked) and print it.
29

1 = COc1cc(F)c(OC2CCC(C)(C(=O)O)CC2)cc1C(=O)NC1CC(OC)CC1C(=O)Nc1cccc(S(=O)(=O)C(F)(F)F)c1 (single isomer, unassigned) [Example 524]
2 = COc1cc(F)c(-c2ccc(C(=O)O)cc2)cc1C(=O)N[C@H]1[C@@H](C(=O)Nc2ccc(F)c(C#N)c2)[C@@H]2C=C[C@H]1C2 (racemic)
3 = COc1cc(F)c(O[C@H]2CC[C@@H](C(=O)O)CC2)cc1C(=O)N[C@@H]1[C@H]2CC[C@H](C2)[C@@H]1C(=O)Nc1cccc(Cl)c1
4 = COC[C@]1(C(=O)O)CC[C@@H](Oc2cc(C(=O)N[C@@H]3[C@@H]4CC[C@@H](C4)[C@@H]3C(=O)Nc3cccc(S(=O)(=O)C(F)(F)F)c3)c(OC)cc2F)CC1
5 = COc1cc(F)c(O[C@H]2CC[C@@](C)(C(=O)O)CC2)cc1C(=O)N[C@@H]1[C@H]2CC[C@H](C2)[C@@H]1C(=O)NCC(F)(F)C(F)(F)F
List the 5 entries from lowest EC50 to highest EC50 value. Kindly provide the labels arranged according to the requested ordering.
4, 1, 5, 3, 2
